Molecular target: Melanocortin receptor 4 (Homo sapiens) (UniProt P32245)
Sequence (P32245 whole entry, looked up): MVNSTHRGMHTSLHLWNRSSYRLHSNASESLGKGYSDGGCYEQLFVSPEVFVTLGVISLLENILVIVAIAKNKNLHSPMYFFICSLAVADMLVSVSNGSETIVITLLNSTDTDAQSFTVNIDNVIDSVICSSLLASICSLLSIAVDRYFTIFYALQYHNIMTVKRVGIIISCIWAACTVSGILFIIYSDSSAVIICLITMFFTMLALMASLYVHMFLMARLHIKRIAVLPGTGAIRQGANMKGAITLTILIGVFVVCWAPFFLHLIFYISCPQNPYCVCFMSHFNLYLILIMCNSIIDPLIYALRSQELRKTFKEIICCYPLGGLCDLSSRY
Assay: activators of MC4R beta-arrestin recruitment – cell-based, luminescence, agonist arm of biased-ligand search, primary screen (AID 540308)
Conditions: U2OS MC4R beta-arrestin complementation, at 8.9 µM, active compounds read high, percent of melanotan II response, DMSO zero
About 3,500 (0.97%) of roughly 360,000 compounds were called active. Many of the other results were omitted from the sample, so actives are more common in it than they were.
// values below are reported activation
Form entry: value (%) — number only.

# example entries with known answers
[
  {
    "COMPOUND": "CCCCN(C=O)c1c(CC)nc2c(OCc3ccccc3C(=O)OC)cccn12",
    "activation [%]": 0.49
  },
  {
    "COMPOUND": "COc1ccc(S(=O)(=O)N2CCC(C(=O)OCC(=O)c3ccccc3)CC2)cc1[N+](=O)[O-]",
    "activation [%]": 31.7
  },
  {
    "COMPOUND": "COc1ccc(-c2noc(C(C)NS(=O)(=O)c3ccc(NC(C)=O)cc3)n2)cc1 (stereo unspecified)",
    "activation [%]": -3.52
  },
  {
    "COMPOUND": "COc1ccc(C(C)(O)c2nc(-c3ccc(C)c(C)c3)cs2)cc1 (stereo unspecified)",
    "activation [%]": 0.79
  },
  {
    "COMPOUND": "Cc1ccc(O)c(NC(=S)NC(=O)COc2ccc(Br)cc2)c1",
    "activation [%]": 19.5
  },
  {
    "COMPOUND": "Clc1ccccc1Nc1nc(NCc2cccs2)nc2ccsc12",
    "activation [%]": 15.7
  }
]

Note: attention shifts to another entry.
Prompt: Given COCCNc1nc(Nc2ccccc2Cl)c2sc(-c3ccccc3)cc2n1 , state its recorded activation.
Response: 10.6

---

Biological target: Melanocortin receptor 4 (Homo sapiens) (UniProt P32245)
Experiment: activators of MC4R beta-arrestin recruitment – cell-based, luminescence, agonist arm of biased-ligand search, primary screen (AID 540308)
Conditions: U2OS MC4R beta-arrestin complementation, at 8.9 µM, percent of melanotan II response, DMSO zero
The whole screen tested about 360,000 compounds, of which about 3,500 (0.97%) were called active.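 The calls were made as follows: active = activation above a per-plate cutoff, the mean activation of sample wells on that plate plus 3 SD (cut at about 8% in these data); inactive = the rest.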 For the sample, actives were picked, then their nearest neighbours and some compounds at random.
The reply should be one of these categories: y = active, n = inactive

Illustrative cases are given below, each with its answer.
[
  {
    "COMPOUND": "CCn1c(C(O)c2cc(OC)ccc2OC)nc2ccccc21 (stereo not drawn)",
    "ASSIGNED_CLASS": "n"
  },
  {
    "COMPOUND": "O=c1c2c(-c3ccccc3)ccnc2[nH]n1-c1ccccc1",
    "ASSIGNED_CLASS": "n"
  },
  {
    "COMPOUND": "COc1cccc(CNC(=O)c2nnn(CC(=O)Nc3cc(C)ccc3C)c2N)c1",
    "ASSIGNED_CLASS": "n"
  },
  {
    "COMPOUND": "COc1cccc(CNC(=O)c2nnn(CC(=O)Nc3cc(Cl)ccc3C)c2N)c1",
    "ASSIGNED_CLASS": "y"
  }
]

Prompt: Each compound tested received a call. Report the one for CCCNC(=O)C1(C)CCCN(Cc2c(C)nn(-c3ccccc3)c2C)C1 (stereo not drawn) .
Response: n

Prompt: Each compound tested received a call. Report the one for CC(O)(c1cccc(F)c1)c1nc(-c2ccc3c(c2)OCO3)cs1 (stereo not drawn) .
Response: n

Prompt: Each compound tested received a call. Report the one for COCCCNC(=O)c1ccc(-c2c(C)noc2C)c2ccoc12 .
Response: n

Prompt: Each compound tested received a call. Report the one for CCc1nnc(NC(=O)CSCc2cc(=O)n3cc(C)sc3n2)s1 .
Response: n

Prompt: Each compound tested received a call. Report the one for CSc1ccccc1OCc1cc(C(=O)N2C[C@H]3CC[C@H]2C3)no1 .
Response: n

Prompt: Each compound tested received a call. Report the one for COC(=O)c1ccc(CN2C(=O)C(Cc3ccccc3)ON=C2c2ncccc2C)o1 (stereo not drawn) .
Response: n

Prompt: Each compound tested received a call. Report the one for Cc1ccnc(N2C(=O)c3ccc([N+](=O)[O-])cc3C2=O)c1 .
Response: n

Prompt: Each compound tested received a call. Report the one for COCCNc1nnc(SCC(=O)NNC(=O)c2ccco2)s1 .
Response: n

Prompt: Each compound tested received a call. Report the one for Fc1ccccc1COc1ccccc1CNCc1ccncc1 .
Response: n

---

Biological target: Melanocortin receptor 4 (Homo sapiens) (UniProt P32245)
Assay: activators of MC4R beta-arrestin recruitment – cell-based, luminescence, agonist arm of biased-ligand search, primary screen (AID 540308)
Settings: U2OS MC4R beta-arrestin complementation, at 8.9 µM, percent of melanotan II response, DMSO zero
The campaign covered roughly 360,000 compounds. About 3,500 (0.97%) were called active.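 Rule for the calls: active = activation above a per-plate cutoff, the mean activation of sample wells on that plate plus 3 SD (cut at about 8% in these data); inactive = the rest.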 What follows is part of a selection rich in actives, with near analogues and random picks from the rest.
The reply should be one of these categories: YES = active, NO = inactive

[
  {
    "COMPOUND": "CC1(Cc2cccc(C#N)c2)C(=O)Nc2ccc(-c3cccc(C(F)(F)F)c3)cc21 (centres undefined)",
    "ASSIGNED_CLASS": "NO"
  },
  {
    "COMPOUND": "Cc1ccc(NC(=O)CCNS(=O)(=O)c2ccc3c(c2)oc(=O)n3C)cc1C",
    "ASSIGNED_CLASS": "NO"
  },
  {
    "COMPOUND": "Cc1ccc(S(=O)(=O)NCCC(=O)Nc2cccc(S(N)(=O)=O)c2)cc1C",
    "ASSIGNED_CLASS": "NO"
  },
  {
    "COMPOUND": "CCc1nc2c(OCCOc3ccccc3)cccn2c1N(C)C(=O)c1ccccc1F",
    "ASSIGNED_CLASS": "NO"
  },
  {
    "COMPOUND": "OCCN1CCN(c2ncnc3c2ncn3[C@H]2CN(Cc3ccco3)C[C@@H](CO)O2)CC1",
    "ASSIGNED_CLASS": "NO"
  }
]

Prompt: Each compound tested received a call. Report the one for CC(CNc1ccc([N+](=O)[O-])cc1)NC(=O)c1ccccc1Br (centres undefined) .
Response: NO

Prompt: Each compound tested received a call. Report the one for O=C(NCCN1CCOCC1)c1ccccc1N1C(=O)[C@@H]2Cc3c([nH]c4ccccc34)C(c3cccc(Cl)c3)N2C1=O (some centres undefined) .
Response: NO

Prompt: Each compound tested received a call. Report the one for OC[C@@H]1CN(Cc2ccc3c(c2)OCO3)C[C@H](n2cnc3c(NCc4ccco4)ncnc32)O1 .
Response: NO

Prompt: Each compound tested received a call. Report the one for O=C(NCCNc1ccc([N+](=O)[O-])cc1Cl)c1ccccc1F .
Response: NO

Prompt: Each compound tested received a call. Report the one for CCOC(=O)N(C)c1c(CC)nc2c(OCc3ccccc3C(=O)OC)cccn12 .
Response: NO

Prompt: Each compound tested received a call. Report the one for CC[C@]1(C(=O)OC)[C@H]2C(=O)N(Cc3ccccc3)C(=O)[C@H]2[C@H]2CN=C(SCc3ccccc3)N21 .
Response: NO

Prompt: Each compound tested received a call. Report the one for CC1(C)CN(Cc2cccnc2)C(=O)[C@H]1CC(=O)Nc1ccc(Br)cc1 .
Response: NO

Prompt: Each compound tested received a call. Report the one for O=C(N[C@@H](Cc1ccccc1)C(=O)OCc1ccccc1)c1nc[nH]c1C(=O)N[C@@H](Cc1ccccc1)C(=O)OCc1ccccc1 .
Response: NO

Prompt: Each compound tested received a call. Report the one for CC1(C)CN(CCc2ccccc2)C(=O)[C@H]1CC(=O)Nc1ccc(Br)cc1 .
Response: NO

Prompt: Each compound tested received a call. Report the one for Cc1ccc(CNC(=O)Nc2nnc([C@H]3C[C@H](O)[C@@H](CO)O3)s2)cc1 .
Response: NO

---

Target: Melanocortin receptor 4 (Homo sapiens)
Assay: activators of MC4R beta-arrestin recruitment – cell-based, luminescence, agonist arm of biased-ligand search, primary screen (AID 540308)
Details: U2OS MC4R beta-arrestin complementation, at 8.9 µM, active compounds read high, percent of melanotan II response, DMSO zero
The campaign covered roughly 360,000 compounds. About 3,500 (0.97%) were called active. The list comes from a sample in which actives are over-represented; it also holds close analogues and randomly drawn compounds.
ENDPOINT_NAME: activation (%)
Form entry: value (%) — number only.

# example entries with known answers
[
  {
    "MOLECULE": "C[C@H](NC(=O)[C@@H]1Cc2ccccc2CN1C(=O)OC(C)(C)C)C(=O)NC1CCCC1",
    "UNIT_OF_MEASURE": "%",
    "activation": -3.11
  },
  {
    "MOLECULE": "Cc1noc(C)c1-c1ccc(C(=O)NCc2ccncc2)c2occc12",
    "UNIT_OF_MEASURE": "%",
    "activation": -0.03
  },
  {
    "MOLECULE": "COc1ccc(C(=O)N2CCCCC2c2cc(C(=O)Nc3ccc(F)c(Cl)c3)no2)cc1 (stereo unspecified)",
    "UNIT_OF_MEASURE": "%",
    "activation": 2.26
  },
  {
    "MOLECULE": "CC(C)CNS(=O)(=O)c1ccc(CCC(=O)NCc2ccc(Cl)cc2)cc1",
    "UNIT_OF_MEASURE": "%",
    "activation": 0.27
  },
  {
    "MOLECULE": "O=C(Nc1nnc(COc2ccccc2)s1)Nc1ccccc1F",
    "UNIT_OF_MEASURE": "%",
    "activation": -0.21
  },
  {
    "MOLECULE": "CCN(CC)C(=O)Oc1ccc(Br)cc1C(=O)Nc1ccc(F)c(Cl)c1",
    "UNIT_OF_MEASURE": "%",
    "activation": 11.6
  },
  {
    "MOLECULE": "Cc1ccc(NC(=O)NC(=O)N(C2CCCCC2)S(=O)(=O)c2ccccc2)cc1",
    "UNIT_OF_MEASURE": "%",
    "activation": 9.21
  },
  {
    "MOLECULE": "CC(c1ccco1)N(C(=O)Nc1ccccc1)C1CCCCC1 (stereo unspecified)",
    "UNIT_OF_MEASURE": "%",
    "activation": -3.36
  },
  {
    "MOLECULE": "O=C(NCc1ccc(F)cc1)c1cc(C2CCCCN2C(=O)c2cccs2)on1 (stereo unspecified)",
    "UNIT_OF_MEASURE": "%",
    "activation": -0.1
  },
  {
    "MOLECULE": "CSc1ccc(S(=O)(=O)NCc2ccc(Cl)cc2)cc1",
    "UNIT_OF_MEASURE": "%",
    "activation": 10.2
  }
]

Prompt: Recall the recorded activation for OC[C@@H]1CN(Cc2ccc(Cl)cc2)C[C@H](n2cnc3c(NCc4ccncc4)ncnc32)O1 with Melanocortin receptor 4 (Homo sapiens) and state it.
Response: 0.2

Prompt: Recall the recorded activation for COc1ccc(Cc2nnc(NC(=O)c3cc(OC)c(OC)c(OC)c3)s2)cc1OC with Melanocortin receptor 4 (Homo sapiens) and state it.
Response: 0.62

Prompt: Recall the recorded activation for COc1ccc(S(=O)(=O)N2CCCCC2c2cc(C(=O)NCc3ccc(F)cc3)no2)cc1 (stereo unspecified) with Melanocortin receptor 4 (Homo sapiens) and state it.
Response: -0.38

Prompt: Recall the recorded activation for CC(=O)Nc1cc(-c2ccccc2F)cn2c(-c3cccc(C(F)(F)F)c3)cnc12 with Melanocortin receptor 4 (Homo sapiens) and state it.
Response: 22.5

Prompt: Recall the recorded activation for CCCNC(=O)C1(C)CCN(Cc2ccc(Cl)c(Cl)c2)C1 (stereo unspecified) with Melanocortin receptor 4 (Homo sapiens) and state it.
Response: -2.21

Prompt: Recall the recorded activation for COc1cccc2sc(N(CCCN(C)C)C(=O)C(c3ccccc3)c3ccccc3)nc12 with Melanocortin receptor 4 (Homo sapiens) and state it.
Response: 11.3

Prompt: Recall the recorded activation for Cn1c(NCc2cccnc2)nc2cc(-c3ccc(F)cc3)sc2c1=O with Melanocortin receptor 4 (Homo sapiens) and state it.
Response: 1.42

Prompt: Recall the recorded activation for CCCOc1ccc(F)cc1-c1cc(C(=O)Nc2ccc(F)c(Cl)c2)[nH]n1 with Melanocortin receptor 4 (Homo sapiens) and state it.
Response: 2.17

Prompt: Recall the recorded activation for COc1ccccc1NC(=O)Nc1nc(CC(=O)Nc2ccccc2F)cs1 with Melanocortin receptor 4 (Homo sapiens) and state it.
Response: -1.3

Prompt: Recall the recorded activation for Cc1ccc(S(=O)(=O)NCCC(=O)NCc2ccc(Cl)cc2)cc1C with Melanocortin receptor 4 (Homo sapiens) and state it.
Response: -1.43

Prompt: Recall the recorded activation for Cc1cccc2sc(N(CCCN(C)C)C(=O)CCS(=O)(=O)c3ccccc3)nc12 with Melanocortin receptor 4 (Homo sapiens) and state it.
Response: -2.28
